meta.source: ChEMBL document CHEMBL4613239

IC50 overview
- measurementDescription: Inhibition of Saccharomyces cerevisiae alpha-glucosidase using pNPG as substrate preincubated for 10 mins followed by substrate addition after 20 mins
// note: answer is a bare numeric in µM

compound | unitsSymbol | IC50
O=C1Nc2ccccc2-c2nc3ccccc3c(=O)n2-c2ccccc21 | µM | 144
C=CC(C)(C)[C@@]12C[C@@H]3C(=O)N4[C@H](C[C@@]5(C(C)(C)C=C)c6ccccc6N[C@@H]45)C(=O)N3[C@@H]1Nc1ccccc12 | µM | 57.4
CC1(C)c2[nH]c3cc(Cl)c(Cl)cc3c2C[C@@]23CN4CCC[C@]4(C[C@@H]12)C(=O)N3 | µM | 71.3
O=C1Nc2ccccc2-c2nc3ccccc3c(=O)n2-c2c(O)cccc21 | µM | 117
Cc1cc(O)c2c(c1)C(=O)c1cc(O[C@H]3O[C@H](CO)[C@@H](O)[C@H]3O)cc(O)c1C2=O | µM | 261

Next item in the queue.
**Q:** Look up IC50: C[C@H]1O[C@H](O[C@H]2[C@H](O)[C@@H](O)[C@@H](O[C@H]3[C@H](O)[C@@H](O)C(O)O[C@@H]3CO)O[C@@H]2CO)[C@H](O)[C@@H](O)[C@@H]1N[C@H]1C=C(CO)[C@@H](O)[C@H](O)[C@H]1O (stereo partly specified)
**A:** 586
